All values here come from patent US11332459B2.

target: human TRPC6 (Homo sapiens)
measurementProtocol: TRPC6 calcium flux assay (FLIPR, OAG-stimulated calcium influx)
conditionsUsed: HEK293 cells stably transfected with human TRPC6, read-out: hTRPC6 Potency
Structures can show the parent of a compound that is named as a salt.
measureName: log10 of IC50 (log10 of the value in nM)
// stored as log10 of IC50 expressed in nM

Past entries and their recorded results:
[
  {
    "compound": "N#Cc1ccc(Cn2c(N3CCC(F)(F)[C@H](N)C3)nc3cc(F)ccc32)nc1 [Example 71, hydrochloride]",
    "log10 of IC50": 0.75
  },
  {
    "compound": "N#Cc1ccc(Cn2c(N3CCC(F)(F)[C@H](N)C3)nc3ccccc32)nc1 [Example 212, hydrochloride]",
    "log10 of IC50": 0.54
  },
  {
    "compound": "N#Cc1ccc(Cn2c(N3CCC[C@@H](N)C3)nc3ccccc32)cc1",
    "log10 of IC50": 2.41
  },
  {
    "compound": "CO[C@@H]1CCN(c2nc3ccc(F)cc3n2Cc2ncc(Cl)cn2)C[C@H]1N (single isomer, unassigned) [Example 456]",
    "log10 of IC50": 0.93
  }
]

Prompt: Consider the compound COc1cc(F)cc2c1nc(N1CC[C@@H](F)[C@H](N)C1)n2Cc1ccc(C#N)cn1 . State its measured log10 of IC50.
Response: 0.07

Prompt: Consider the compound N#Cc1ccc2c(c1)nc(N1CC[C@@H](F)[C@H](N)C1)n2Cc1cnc(C#N)cn1 . State its measured log10 of IC50.
Response: 1.89

Prompt: Consider the compound CN[C@@H]1CN(c2nc3ccc(F)cc3n2CC(=O)N(C)CC(F)(F)F)CC[C@H]1F . State its measured log10 of IC50.
Response: 2.28

Prompt: Consider the compound CN(CC(F)(F)F)C(=O)Cn1c(N2CC[C@@H](F)[C@H](N)C2)nc2cc(F)cc(F)c21 . State its measured log10 of IC50.
Response: 3.20

Prompt: Consider the compound CN[C@@H]1CN(c2nc3cc(F)cc(F)c3n2[C@@H](C)c2ccc(C#N)cn2)CC[C@H]1F (single isomer, unassigned) . State its measured log10 of IC50.
Response: 0.35

Prompt: Consider the compound N[C@@H]1CCCN(c2nc3ccccc3n2Cc2ccc(F)cc2F)C1 . State its measured log10 of IC50.
Response: 3.66

Prompt: Consider the compound COc1ccc2nc(N3CCC[C@H](N)C3)n(Cc3ccc(C#N)cn3)c2c1 [Example 142, 2,2,2-trifluoroacetate] . State its measured log10 of IC50.
Response: 1.14

Prompt: Consider the compound N#Cc1ccc(Cn2c(N3CC[C@@H](CN)C3)nc3ccccc32)cc1 . State its measured log10 of IC50.
Response: 1.67

Prompt: Consider the compound N#Cc1ccc(Cn2c(N3CC[C@@H](F)[C@H](N)C3)nc3cc(C(F)(F)F)cnc32)nc1 . State its measured log10 of IC50.
Response: 2.68

Prompt: Consider the compound N[C@@H]1CN(c2nc3cc(F)c(F)cc3n2Cc2ccccc2OC(F)F)CC[C@H]1F . State its measured log10 of IC50.
Response: 2.69

* * *

target: human TRPC6 (Homo sapiens, UniProt Q9Y210)
measurementProtocol: TRPC6 calcium flux assay (FLIPR, OAG-stimulated calcium influx)
conditionsUsed: HEK293 cells stably transfected with human TRPC6, read-out: hTRPC6 Potency
Description: Biological Example 1 TRPC6 Calcium Flux Assay Potency of TRPC6 (Transient receptor potential channel family C6) inhibitors were measured by their inhibition of Calcium influx trigged by […] (1-Oleoyl-2-acetyl-sn-glycerol, Millipore Sigma, O6754) stimulation on HEK293 cells stablely transfected with human TRPC6 using a FLIPR tetra system. […]
pIC50: −log10 of the molar value. Where a name gives a salt, the structure may show the parent alone.
Category key, based on recorded pIC50: bottom bin: < 7; middle bin: ≥ 7 and < 8; top bin: ≥ 8

Answered examples (5):
[
  {
    "molecule": "N#Cc1ccc(Cn2c(N3CC[C@@H](F)[C@H](N)C3)nc3cc(F)c(F)cc32)nc1",
    "assignedLabel": "top bin"
  },
  {
    "molecule": "N[C@@H]1CN(c2nc3cc(F)c(F)cc3n2CC(=O)N2CCCC3COCCC32)CC[C@H]1F (stereo partly drawn)",
    "assignedLabel": "bottom bin"
  },
  {
    "molecule": "N[C@@H]1CN(c2nc3ccc(F)cc3n2CC(=O)N(CC(F)(F)F)[C@H]2CCOC2)CC[C@H]1F",
    "assignedLabel": "bottom bin"
  },
  {
    "molecule": "N#Cc1ccc(Cn2c(N3C[C@H]4NCCO[C@@H]4C3)nc3ccccc32)nc1",
    "assignedLabel": "middle bin"
  },
  {
    "molecule": "N#Cc1cccc(Cn2c(N3CC[C@@H](F)[C@H](N)C3)nc3cc(F)c(F)cc32)c1",
    "assignedLabel": "bottom bin"
  }
]

Prompt: # bin lookup: classify N[C@@H]1CN(c2nc3cc(F)c(F)cc3n2CC(=O)N2CCC3CC32)CC[C@H]1F (mixture of isomers) by its pIC50
Response: middle bin

Prompt: # bin lookup: classify C[C@@H](c1ccc(C#N)cn1)n1c(N2CC[C@@H]3OCCN[C@H]3C2)nc2c(F)cc(F)cc21 by its pIC50
Response: top bin

Prompt: # bin lookup: classify C[C@H](c1ccc(C#N)cc1)n1c(N2CCC[C@H](N)C2)nc2ccccc21 [Example 313, hydrochloride] by its pIC50
Response: bottom bin

Prompt: # bin lookup: classify CS(=O)(=O)N1CCN(C(=O)Cn2c(N3CC[C@@H](F)[C@H](N)C3)nc3cc(F)c(F)cc32)CC1 by its pIC50
Response: bottom bin

Prompt: # bin lookup: classify CN(C(=O)Cn1c(N2CC[C@@H](F)[C@H](N)C2)nc2ccc(F)cc21)[C@H]1CCOC1 by its pIC50
Response: bottom bin

* * *

Examples of compounds with documented IC50 follow.
target: UniProtKB Q9Y210
measurementProtocol: TRPC6 calcium flux assay (FLIPR, OAG-stimulated calcium influx)
conditionsUsed: HEK293 cells stably transfected with human TRPC6, read-out: hTRPC6 Potency
Report the figure in nM without appending any unit label.

Past entries and their recorded results:
[
  {
    "compound": "N[C@@H]1CCCN(c2nc3ccccc3n2Cc2c(Cl)cccc2Cl)C1 [Example 373]",
    "target": "UniProtKB Q9Y210",
    "recordedNumber": 5850
  },
  {
    "compound": "CN(CC(F)(F)F)C(=O)Cn1c(N2CCC(F)(F)[C@H](N)C2)nc2ccc(F)cc21 [Example 465]",
    "target": "UniProtKB Q9Y210",
    "recordedNumber": 86.7
  },
  {
    "compound": "C[C@@H](CC#N)NC(=O)Cn1c(N2CC[C@@H](F)[C@H](N)C2)nc2ccc(F)cc21 [Example 669]",
    "target": "UniProtKB Q9Y210",
    "recordedNumber": 901
  },
  {
    "compound": "CN(C)C(=O)Cn1c(N2CC[C@@H](F)[C@H](N)C2)nc2cc(F)c(F)cc21 [Example 278]",
    "target": "UniProtKB Q9Y210",
    "recordedNumber": 737
  },
  {
    "compound": "N[C@@H]1CCCN(c2nc3ccccc3n2Cc2ccc(F)c(F)c2)C1 [Example 390]",
    "target": "UniProtKB Q9Y210",
    "recordedNumber": 3570
  }
]

Prompt: Consider the compound CC(F)(F)c1ccc(Cn2c(N3CCC[C@@H](N)C3)nc3ccccc32)cc1 [Example 379] . State its measured IC50.
Response: 4440

Prompt: Consider the compound N[C@H]1CCCN(c2nc3ccccc3n2Cc2ccc(Cl)cn2)C1 [Example 209] . State its measured IC50.
Response: 3.87

Prompt: Consider the compound N#Cc1ccc(Cn2c(N3CC[C@H](F)[C@H](N)C3)nc3c(F)cc(F)cc32)nc1 [Example 65] . State its measured IC50.
Response: 0.598

Prompt: Consider the compound C[C@H](c1ccc(C#N)cn1)n1c(N2CC[C@@H]3OCCN[C@H]3C2)nc2cc(F)cc(F)c21 [Example 272] . State its measured IC50.
Response: 2.81

Prompt: Consider the compound N#CCCN(CC1CCOC1)C(=O)Cn1c(N2CC[C@@H](F)[C@H](N)C2)nc2cc(F)c(F)cc21 (some centres unmarked) [Example 643] . State its measured IC50.
Response: 1820

* * *

target: human TRPC6 (Homo sapiens, UniProt Q9Y210)
Construct: expressed in transfected cells
Sequence (Q9Y210 1-931): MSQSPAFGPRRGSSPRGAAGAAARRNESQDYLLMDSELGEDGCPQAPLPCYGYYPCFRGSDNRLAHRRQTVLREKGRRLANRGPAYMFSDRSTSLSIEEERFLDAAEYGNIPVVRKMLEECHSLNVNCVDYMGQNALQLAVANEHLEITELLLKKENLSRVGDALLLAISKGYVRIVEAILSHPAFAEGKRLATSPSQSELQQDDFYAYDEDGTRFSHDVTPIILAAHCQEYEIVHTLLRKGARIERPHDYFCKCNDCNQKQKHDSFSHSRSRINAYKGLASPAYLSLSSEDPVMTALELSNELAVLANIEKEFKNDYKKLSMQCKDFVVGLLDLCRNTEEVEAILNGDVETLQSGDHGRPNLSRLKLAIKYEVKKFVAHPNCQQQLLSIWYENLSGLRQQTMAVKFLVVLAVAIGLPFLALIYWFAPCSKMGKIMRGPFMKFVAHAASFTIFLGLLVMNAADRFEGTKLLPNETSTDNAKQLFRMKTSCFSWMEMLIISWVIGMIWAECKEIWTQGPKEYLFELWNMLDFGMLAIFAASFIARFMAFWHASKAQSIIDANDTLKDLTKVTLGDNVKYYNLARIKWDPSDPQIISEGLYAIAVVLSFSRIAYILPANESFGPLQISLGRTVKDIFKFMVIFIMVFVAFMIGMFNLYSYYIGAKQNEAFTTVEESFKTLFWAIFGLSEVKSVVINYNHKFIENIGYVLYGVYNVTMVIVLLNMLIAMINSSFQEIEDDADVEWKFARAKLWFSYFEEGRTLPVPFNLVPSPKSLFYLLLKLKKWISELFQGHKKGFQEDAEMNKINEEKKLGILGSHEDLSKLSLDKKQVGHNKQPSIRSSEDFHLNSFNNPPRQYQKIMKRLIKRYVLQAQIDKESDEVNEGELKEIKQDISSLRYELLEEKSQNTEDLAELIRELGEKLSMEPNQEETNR
measurementProtocol: TRPC6 calcium flux assay (FLIPR, OAG-stimulated calcium influx)
Assay type: cell-based
conditionsUsed: HEK293 cells stably transfected with human TRPC6, read-out: hTRPC6 Potency
Where a name gives a salt, the structure may show the parent alone.
measureName: IC50 (nM)
Report the figure in nM without appending any unit label.

[
  {
    "compound": "C[C@H](c1cc(F)ccc1F)n1c(N2CC[C@@H](F)[C@H](N)C2)nc2cc(F)c(F)cc21",
    "recordedNumber": 3540
  },
  {
    "compound": "N#Cc1ccc(Cn2c(N3CC[C@@H](F)[C@H](N)C3)nc3cc(C#N)ccc32)nc1",
    "recordedNumber": 5.52
  },
  {
    "compound": "CC[C@@H](c1ccc(C#N)cn1)n1c(N2CCC[C@H](N)C2)nc2ccccc21 [Example 300, hydrochloride]",
    "recordedNumber": 406
  },
  {
    "compound": "CN(C)C(=O)Cn1c(N2CC[C@@H](F)[C@H](N)C2)nc2c(F)cc(F)cc21",
    "recordedNumber": 32.2
  }
]

Alright, here's another compound for you.
Prompt: Consider the compound COc1cc(F)cc2nc(N3CC[C@@H](F)[C@H](N)C3)n(CC(=O)N(C)CC(F)(F)F)c12 [Example 509] . State its measured IC50.
Response: 131
